Taken from ChEMBL document CHEMBL3994613.

- Tested on: Escherichia coli
- Assay: Bactericidal activity against Escherichia coli DH10beta harboring pHuLUC3 after 18 to 20 hrs by microdilution method
- Assay type: functional

>  <Smi>
O=C(c1ccc(C(F)(F)F)cc1)N(/N=N/c1ccc([N+](=O)[O-])cc1Cl)c1ccc([N+](=O)[O-])cc1Cl

>  <MBC / µg/mL>
128

$$$$
>  <Smi>
O=C(c1ccncc1)N(/N=N/c1ccc([N+](=O)[O-])c(C(F)(F)F)c1)c1ccc([N+](=O)[O-])c(C(F)(F)F)c1

>  <MBC / µg/mL>
32

$$$$
>  <Smi>
O=C(c1cccc(C(F)(F)F)c1)N(/N=N/c1ccc([N+](=O)[O-])cc1Br)c1ccc([N+](=O)[O-])cc1Br

>  <MBC / µg/mL>
64

$$$$
>  <Smi>
O=C(c1ccccc1)N(/N=N/c1ccc([N+](=O)[O-])cc1Cl)c1ccc([N+](=O)[O-])cc1Cl

>  <MBC / µg/mL>
32

$$$$

---

- Test system: Mycolicibacterium smegmatis
- Assay: Antimycobacterial activity against Mycobacterium smegmatis MC2 155 after 3 days by broth macrodilution method
- Type: functional
- Study conditions: str. MC2 155, 72 h
Friendly reminder: MIC below 40 µg/mL is met, at or above is not met.

>  <Compound>
N[C@@H]1CONC1=O

>  <Label value>
not met

$$$$
>  <Compound>
CN[C@H](CC(C)C)C(=O)N[C@H]1C(=O)N[C@@H](CC(N)=O)C(=O)N[C@H]2C(=O)N[C@H]3C(=O)N[C@H](C(=O)N[C@H](C(=O)O)c4cc(O)cc(O)c4-c4cc3ccc4O)[C@H](O)c3ccc(c(Cl)c3)Oc3cc2cc(c3O[C@@H]2O[C@H](CO)[C@@H](O)[C@H](O)[C@H]2O[C@H]2C[C@](C)(N)[C@H](O)[C@H](C)O2)Oc2ccc(cc2Cl)[C@H]1O

>  <Label value>
not met

$$$$
>  <Compound>
CC1(C)S[C@@H]2[C@H](NC(=O)C(C(=O)O)c3ccccc3)C(=O)N2[C@H]1C(=O)O (stereo partly drawn)

>  <Label value>
not met

$$$$
>  <Compound>
CC1(C)S[C@@H]2[C@H](NC(=O)[C@H](N)c3ccccc3)C(=O)N2[C@H]1C(=O)O

>  <Label value>
not met

$$$$
>  <Compound>
CO/N=C(\C(=O)N[C@@H]1C(=O)N2C(C(=O)O)=C(CSc3nc(=O)c(O)nn3C)CS[C@H]12)c1csc(N)n1

>  <Label value>
met

$$$$
>  <Compound>
Cc1onc(-c2ccccc2)c1C(=O)N[C@@H]1C(=O)N2[C@@H]1SC(C)(C)[C@@H]2C(=O)O

>  <Label value>
met

$$$$

---

Reported MBC values are given for each entry in this list.
- Tested on: Escherichia coli
- Assay: Bactericidal activity against Escherichia coli DH10beta harboring pHuLUC3 after 18 to 20 hrs by microdilution method
- Assay type: functional
Metric name: MBC (µg/mL)

>  <Smi>
O=C(CCl)N(/N=N/c1ccc([N+](=O)[O-])cc1C(F)(F)F)c1ccc([N+](=O)[O-])cc1C(F)(F)F

>  <Comparison symbol>
>

>  <Reported measurement>
128

$$$$
>  <Smi>
O=C(c1ccncc1)N(/N=N/c1ccc([N+](=O)[O-])cc1Br)c1ccc([N+](=O)[O-])cc1Br

>  <Comparison symbol>
=

>  <Reported measurement>
32

$$$$
>  <Smi>
COC(=O)N(/N=N/c1ccc([N+](=O)[O-])cc1Cl)c1ccc([N+](=O)[O-])cc1Cl

>  <Comparison symbol>
=

>  <Reported measurement>
128

$$$$
>  <Smi>
O=C(c1ccccc1C(F)(F)F)N(/N=N/c1ccc([N+](=O)[O-])cc1Cl)c1ccc([N+](=O)[O-])cc1Cl

>  <Comparison symbol>
=

>  <Reported measurement>
128

$$$$
>  <Smi>
O=C(c1cccnc1)N(/N=N/c1ccc([N+](=O)[O-])c(C(F)(F)F)c1)c1ccc([N+](=O)[O-])c(C(F)(F)F)c1

>  <Comparison symbol>
=

>  <Reported measurement>
64

$$$$
>  <Smi>
O=C(c1cccnc1)N(/N=N/c1ccc([N+](=O)[O-])cc1Br)c1ccc([N+](=O)[O-])cc1Br

>  <Comparison symbol>
=

>  <Reported measurement>
32

$$$$
>  <Smi>
O=C(c1cccnc1)N(/N=N/c1ccc([N+](=O)[O-])cc1F)c1ccc([N+](=O)[O-])cc1F

>  <Comparison symbol>
>

>  <Reported measurement>
128

$$$$
>  <Smi>
O=C(c1ccccc1C(F)(F)F)N(/N=N/c1ccc([N+](=O)[O-])cc1Br)c1ccc([N+](=O)[O-])cc1Br

>  <Comparison symbol>
=

>  <Reported measurement>
64

$$$$
